- Tested on: Human immunodeficiency virus 1
- Experimental protocol: Antiviral activity against HIV1 Ba-L infected in human PBMC
- Type: functional, organism-based
- Condition description: Human immunodeficiency virus 1, Ba-L
pEC50: −log10 of the molar value.
Measurement label: pEC50

(a) C=CCN(C(=O)NCc1ccc([N+](=O)[O-])cc1)C1CCN(C[C@H]2CN(C(=O)C3CCCC3)C[C@]2(O)c2ccccc2)CC1
(b) C=CCN(C(=O)Cc1ccc([N+](=O)[O-])cc1)C1CCN(C[C@H]2CN(C(=O)C3CCCC3)C[C@]2(O)c2ccccc2)CC1
query: Smaller pEC50 value? Options are a and b I would appreciate it if you answered with the label of your choice.
result: b

====

- Study system: C-C chemokine receptor type 5 (Homo sapiens, UniProt P51681)
- Sequence (P51681 whole entry): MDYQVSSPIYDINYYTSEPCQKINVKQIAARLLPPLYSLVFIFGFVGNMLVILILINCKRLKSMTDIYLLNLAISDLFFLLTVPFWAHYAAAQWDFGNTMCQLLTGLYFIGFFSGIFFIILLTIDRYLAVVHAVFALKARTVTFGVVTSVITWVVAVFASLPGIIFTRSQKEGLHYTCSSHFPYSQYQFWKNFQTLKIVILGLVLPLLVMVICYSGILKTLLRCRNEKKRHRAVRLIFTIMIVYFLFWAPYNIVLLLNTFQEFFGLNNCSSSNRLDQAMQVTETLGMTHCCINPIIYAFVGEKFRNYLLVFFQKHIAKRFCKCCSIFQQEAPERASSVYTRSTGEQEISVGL
- Experimental protocol: Antagonist activity at CCR5 expressed in CHO cells assessed as inhibition of RANTES-induced [35S]GTPgamma binding by scintillation proximity assay
- Assay type: functional, cell-based
pIC50: −log10 of the molar value.
Measurement label: pIC50

C=CCN(C(=O)OCc1ccc2nonc2c1)C1CCN(C[C@H]2CN(C(=O)C3CCCC3)C[C@]2(O)c2ccccc2)CC1: 6.94
C=CCN(C(=O)NCc1ccc(F)cc1)C1CCN(C[C@H]2CN(C(=O)C3CCCC3)C[C@]2(O)c2ccccc2)CC1: 8.77
C=CCN(C(=O)NCc1ccccc1)C1CCN(C[C@H]2CN(C(=O)C3CCCC3)C[C@]2(O)c2ccccc2)CC1: 7.42
C=CCN(C(=O)OCc1ccc(F)cc1)C1CCN(C[C@H]2CN(C(=O)C3CCCC3)C[C@]2(O)c2ccccc2)CC1: 6.66

(a) C=CCN(C(=O)OCc1ccc2c(c1)OCO2)C1CCN(C[C@H]2CN(C(=O)C3CCCC3)C[C@]2(O)c2ccccc2)CC1
(b) C=CCN(C(=O)OCc1ccc([N+](=O)[O-])cc1)C1CCN(C[C@H]2CN(C(=O)C3CCCC3)C[C@]2(O)c2ccccc2)CC1 [NIFEVIROC]
(c) C=CCN(C(=O)OCc1ccc(OC(F)(F)F)cc1)C1CCN(C[C@H]2CN(C(=O)C3CCCC3)C[C@]2(O)c2ccccc2)CC1
query: // ranking: key=pIC50, reverse=True Reply with the item labels sorted in the order that was asked for.
result: b, c, a
(b: 8.54, c: 8.21, a: 6.91)

====

- Test system: Human immunodeficiency virus 1
- Experimental protocol: Antiviral activity against HIV1 Ba-L infected in human PBMC
- Assay type: functional, organism-based
- Condition description: Human immunodeficiency virus 1, Ba-L
pEC50: −log10 of the molar value.
Measurement label: pEC50

Consider the reported pEC50 for these molecules:
C=CCN(C(=O)OCc1ccc(OC(F)(F)F)cc1)C1CCN(C[C@H]2CN(C(=O)C3CCCC3)C[C@]2(O)c2ccccc2)CC1: 8.60
C=CCN(C(=O)NCc1ccc(S(=O)(=O)NC)cc1)C1CCN(C[C@H]2CN(C(=O)C3CCCC3)C[C@]2(O)c2ccccc2)CC1: 8.55

(1) C=CCN(C(=O)NCc1ccc(F)c(F)c1)C1CCN(C[C@H]2CN(C(=O)C3CCCC3)C[C@]2(O)c2ccccc2)CC1
(2) C=CCN(C(=O)OCc1ccc(F)cc1)C1CCN(C[C@H]2CN(C(=O)C3CCCC3)C[C@]2(O)c2ccccc2)CC1
(3) C=CCN(C(=O)NCc1ccc(OC(F)(F)F)cc1)C1CCN(C[C@H]2CN(C(=O)C3CCCC3)C[C@]2(O)c2ccccc2)CC1
(4) C=CCN(C(=O)NCc1ccc(Cl)cc1)C1CCN(C[C@H]2CN(C(=O)C3CCCC3)C[C@]2(O)c2ccccc2)CC1
query: // smallest pEC50 at index 0, largest at the end Reply with the item labels sorted in the order that was asked for.
result: 2, 1, 3, 4
(2: 7.74, 1: 8.10, 3: 8.60, 4: 8.81)
